Data credit: paper PMC3243785

Assay: Aqueous solubility of PCB 136 in incubation buffer by light scattering
Assay type: physicochemical
Conditions: phosphate buffer (incubation buffer), pH 7.4

[
  {
    "CHEM SMILES": "Clc1ccc(Cl)c(-c2c(Cl)ccc(Cl)c2Cl)c1Cl",
    "solubility": "~0.25 µM"
  }
]
